Test Summary: Cell viability assay (CellTiter-Glo) in Jurkat cells
Format: cell-based
Study Conditions: human, Jurkat cells; 72 h; 30 nM; Fig. 4k; read-out: Relative cell viability (%)
Mark y for viability at 72 h, 0.03 µM under 90%, n if at or over.

Compound	Qualitative Label
O=C1Nc2ccc(Br)cc2C1=Cc1cc(Br)c(O)c(Br)c1 [Compound 2]	n
Cc1sc2c(c1C)C(c1ccc(Cl)cc1)=N[C@@H](CC(=O)OC(C)(C)C)c1nnc(C)n1-2 [JQ1, reference compound]	y
Cc1sc2c(c1C)C(c1ccc(Cl)cc1)=NC(CC(=O)NCCOCCOCCOCCOCCNC(=O)COc1c(Br)cc(CC3C(=O)Nc4ccc(Br)cc43)cc1Br)c1nnc(C)n1-2 (centres unmarked) [Compound 16]	n
COCCCN(C(=O)CCl)C(C(=O)NCc1ccccc1)c1ccc(Cl)c(Cl)c1 (centres unmarked) [Compound 15, reference compound]	n

* * *

Test Summary: Cell viability assay (CellTiter-Glo) in Jurkat cells
Format: cell-based
Study Conditions: human, Jurkat cells, concentration 30 nmol/L; individual replicates; Supplementary Fig. 7g; read-out: Cell viability (%) relative to DMSO

Molecule	viability at 72 h, 30 nmol/L (%)
Cc1sc2c(c1C)C(c1ccc(Cl)cc1)=NC(CC(=O)NCCOCCOCCOCCOc1c(Br)cc(C=C3C(=O)Nc4ccc(Br)cc43)cc1Br)c1nnc(C)n1-2 (stereo not drawn)	90.1
COCCCN(C(=O)CCl)C(C(=O)NCc1ccccc1)c1ccc(Cl)c(Cl)c1 (stereo not drawn) [Compound 15, reference compound]	89
O=C1Nc2ccc(Br)cc2C1=Cc1cc(Br)c(O)c(Br)c1	91.8

* * *

Each entry below carries its recorded viability at 72 h, 0.1 µM.
Test Summary: Cell viability assay (CellTiter-Glo) in Jurkat cells
Format: cell-based
Study Conditions: human, Jurkat cells; 72 h; 100 nM; Fig. 4k; read-out: Relative cell viability (%)

Compound	Endpoint Unit	viability at 72 h, 0.1 µM
Cc1sc2c(c1C)C(c1ccc(Cl)cc1)=N[C@@H](CC(=O)OC(C)(C)C)c1nnc(C)n1-2 [JQ1, reference compound]	%	52.1
COCCCN(C(=O)CCl)C(C(=O)NCc1ccccc1)c1ccc(Cl)c(Cl)c1 (stereo not shown) [Compound 15, reference compound]	%	97.5
Cc1sc2c(c1C)C(c1ccc(Cl)cc1)=N[C@@H](CC(=O)NCCOCCOCCOCCOCCNC(=O)COc1c(Br)cc(/C=C3\C(=O)Nc4ccc(Br)cc43)cc1Br)c1nnc(C)n1-2 [Compound 9]	%	64.6
Cc1sc2c(c1C)C(c1ccc(Cl)cc1)=NC(CC(=O)NCCOCCOCCOCCOc1c(Br)cc(CC3C(=O)Nc4ccc(Br)cc43)cc1Br)c1nnc(C)n1-2 (stereo not shown) [Compound 17]	%	104

* * *

Test Summary: Cell viability assay (CellTiter-Glo) in Jurkat cells
Type: cell-based
Study Conditions: human, Jurkat cells, concentration 1000 nmol/L; individual replicates; Supplementary Fig. 7g; read-out: Cell viability (%) relative to DMSO
Measured Quantity: viability at 72 h, 1000 nmol/L (%)

Molecule	Endpoint Unit	Assay Value
Cc1sc2c(c1C)C(c1ccc(Cl)cc1)=NC(CC(=O)NCCOCCOCCOCCOc1c(Br)cc(CC3C(=O)Nc4ccc(Br)cc43)cc1Br)c1nnc(C)n1-2 (centres unmarked) [Compound 17]	%	80.1
Cc1sc2c(c1C)C(c1ccc(Cl)cc1)=N[C@@H](CC(=O)OC(C)(C)C)c1nnc(C)n1-2 [JQ1, reference compound]	%	54.6
O=C1Nc2ccc(Br)cc2C1=Cc1cc(Br)c(O)c(Br)c1 [Compound 2]	%	90.3
Cc1sc2c(c1C)C(c1ccc(Cl)cc1)=NC(CC(=O)NCCOCCOCCOCCOCCNC(=O)COc1c(Br)cc(CC3C(=O)Nc4ccc(Br)cc43)cc1Br)c1nnc(C)n1-2 (centres unmarked) [Compound 16]	%	82.7
Cc1sc2c(c1C)C(c1ccc(Cl)cc1)=N[C@@H](CC(=O)NCCOCCOCCOCCOCCNC(=O)COc1c(Br)cc(/C=C3\C(=O)Nc4ccc(Br)cc43)cc1Br)c1nnc(C)n1-2 [Compound 9]	%	13

* * *

System: Jurkat cells
Test Summary: Cell viability assay (CellTiter-Glo) in Jurkat cells
Assay type: cell-based
Study Conditions: Homo sapiens; Jurkat cells; 72 h
Each entry below carries its recorded GI50.

Compound	GI50
O=C1Nc2ccc(Br)cc2C1=Cc1cc(Br)c(O)c(Br)c1	> 30 µM
Cc1sc2c(c1C)C(c1ccc(Cl)cc1)=NC(CC(=O)NCCOCCOCCOCCOc1c(Br)cc(CC3C(=O)Nc4ccc(Br)cc43)cc1Br)c1nnc(C)n1-2 (stereo not drawn)	1 to 1.2 µM
Cc1sc2c(c1C)C(c1ccc(Cl)cc1)=NC(CC(=O)NCCOCCOCCOCCOCCNC(=O)COc1c(Br)cc(CC3C(=O)Nc4ccc(Br)cc43)cc1Br)c1nnc(C)n1-2 (stereo not drawn)	1 to 1.2 µM

Cited source for all entries: paper PMC10689823
